experiment: Plasma stability, human plasma; details: human plasma, 37° C., timepoint 2 h
Bridge positions count the residues as written; N and C are the ends. Peptide text beside a SMILES is read from it.
Record form. Attribute: Tube 1 (compound concentration). Fill in for each entry.
Answers are plain numbers.

I have 4 compounds here; please give me Tube 1 (compound concentration) for each one.
1. CC(=O)N[C@@H](CO)C(=O)N[C@@H](CCCNC(=N)N)C(=O)N[C@@H](CC(C)C)C(=O)N[C@@H](CCC(=O)O)C(=O)N[C@H]1CC(=O)NCCCC[C@@H](C(=O)N[C@@H](CCCNC(=N)N)C(=O)N[C@@H](CC(C)C)C(=O)N[C@H](C(=O)N[C@@H](CCC(=O)O)C(N)=O)[C@@H](C)O)NC(=O)[C@H](CCCNC(=N)N)NC(=O)[C@H](CC(C)C)NC(=O)[C@H](CCC(=O)O)NC1=O [SD15196] (Ac-SRLEDELRKRLTE-NH2; lactam 5-9)
2. CC(=O)N[C@@H](CO)C(=O)N[C@@H](CCCNC(=N)N)C(=O)N[C@@H](CC(C)C)C(=O)N[C@@H](CCC(=O)O)C(=O)N[C@H]1CCC(=O)NCCCC[C@@H](C(=O)N[C@@H](CCCNC(=N)N)C(=O)N[C@@H](CC(C)C)C(=O)N[C@H](C(=O)N[C@@H](CCC(=O)O)C(N)=O)[C@@H](C)O)NC(=O)[C@H](CCCNC(=N)N)NC(=O)[C@H](CC(C)C)NC(=O)[C@H](CCC(=O)O)NC1=O [SD15194] (Ac-SRLEEELRKRLTE-NH2; lactam 5-9)
3. CC(=O)N[C@@H](CO)C(=O)N[C@@H](CCCNC(=N)N)C(=O)N[C@@H](CC(C)C)C(=O)N[C@@H](CCC(=O)O)C(=O)N[C@@H](CCC(=O)O)C(=O)N[C@@H](CCC(=O)O)C(=O)N[C@@H](CC(C)C)C(=O)N[C@@H](CCCNC(=N)N)C(=O)N[C@H]1CCCCNC(=O)CC[C@@H](C(N)=O)NC(=O)[C@H]([C@@H](C)O)NC(=O)[C@H](CC(C)C)NC(=O)[C@H](CCCNC(=N)N)NC1=O [SD15193] (Ac-SRLEEELRKRLTE-NH2; lactam 9-13)
4. CC(=O)N[C@@H](CO)C(=O)N[C@@H](CCCNC(=N)N)C(=O)N[C@@H](CC(C)C)C(=O)N[C@@H](CCC(=O)O)C(=O)N[C@H]1CCC(=O)NCCCC[C@@H](C(=O)N[C@@H](CCCNC(=N)N)C(=O)N[C@@H](CCCNC(=N)N)C(=O)N[C@@H](CC(C)C)C(=O)N[C@H](C(=O)N[C@@H](CCC(=O)O)C(N)=O)[C@@H](C)O)NC(=O)[C@H](CC(C)C)NC(=O)[C@H](CCC(=O)O)NC1=O [SD15192] (Ac-SRLEEELKRRLTE-NH2; lactam 5-8)

Response:
2.188
2.086
2.769
1.788

---

target: NbALFA; experiment: SPR measurements of NbALFA binding (Biacore T200, multi cycle kinetics, 1:1 binding model); settings: 25° C., HBS-EP+ buffer, biotinylated NbALFA captured
Bridge positions count the residues as written; N and C are the ends. Square brackets hold non-standard residues; d marks the D form. Peptide text beside a SMILES is read from it.
experimental-endpoint: Kd (nM)
Answers are plain numbers, in nM.

{"compound": "CC(=O)N1CCC[C@H]1C(=O)N[C@@H](CO)C(=O)N[C@@H](CCCNC(=N)N)C(=O)N[C@@H](CC(C)C)C(=O)N[C@@H](CCC(=O)O)C(=O)N[C@H]1CCC(=O)NCCCC[C@@H](C(=O)N[C@@H](CCCNC(=N)N)C(=O)N[C@@H](CC(C)C)C(=O)N[C@H](C(=O)N[C@@H](CCC(=O)O)C(N)=O)[C@@H](C)O)NC(=O)[C@H](CCCNC(=N)N)NC(=O)[C@H](CC(C)C)NC(=O)[C@H](CCC(=O)O)NC1=O [SD15341] (Ac-PSRLEEELRKRLTE-NH2; lactam 6-10)", "Kd, nM": 0.0194}
{"compound": "CC(=O)N1CCC[C@H]1C(=O)N[C@@H](CO)C(=O)N[C@@H](CCCNC(=N)N)C(=O)N[C@@H](CC(C)C)C(=O)N[C@@H](CCC(=O)O)C(=O)N[C@H]1CCC(=O)NCCCC[C@H](C(=O)N[C@@H](CCCNC(=N)N)C(=O)N[C@@H](CC(C)C)C(=O)N[C@H](C(=O)N[C@@H](CCC(=O)O)C(N)=O)[C@@H](C)O)NC(=O)[C@H](CCCNC(=N)N)NC(=O)[C@H](CC(C)C)NC(=O)[C@H](CCC(=O)O)NC1=O [SD15808] (Ac-PSRLEEELR[dK]RLTE-NH2; lactam 6-10)", "Kd, nM": 0.038}
{"compound": "CC(=O)N1CCC[C@H]1C(=O)N[C@@H](CO)C(=O)N[C@@H](CCCNC(=N)N)C(=O)N[C@@H](CC(C)C)C(=O)N[C@@H](CCC(=O)O)C(=O)N[C@H]1CCCCNC(=O)CC[C@@H](C(=O)N[C@@H](CCCNC(=N)N)C(=O)N[C@@H](CC(C)C)C(=O)N[C@H](C(=O)N[C@@H](CCC(=O)O)C(N)=O)[C@@H](C)O)NC(=O)[C@H](CCCNC(=N)N)NC(=O)[C@H](CC(C)C)NC(=O)[C@H](CCC(=O)O)NC1=O [SD15805] (Ac-PSRLEKELRERLTE-NH2; lactam 6-10)", "Kd, nM": 0.103}
{"compound": "CC(=O)N[C@@H](CO)C(=O)N[C@@H](CCCNC(=N)N)C(=O)N[C@@H](CC(C)C)C(=O)N[C@@H](CCC(=O)O)C(=O)N[C@@H](CCC(=O)O)C(=O)N[C@@H](CCC(=O)O)C(=O)N[C@@H](CC(C)C)C(=O)N[C@@H](CCCNC(=N)N)C(=O)N[C@H]1CCCCNC(=O)CC[C@@H](C(N)=O)NC(=O)[C@H]([C@@H](C)O)NC(=O)[C@H](CC(C)C)NC(=O)[C@H](CCCNC(=N)N)NC1=O [SD15193] (Ac-SRLEEELRKRLTE-NH2; lactam 9-13)", "Kd, nM": 0.0556}
{"compound": "CC(=O)N[C@@H](CO)C(=O)N[C@@H](CCCNC(=N)N)C(=O)N[C@@H](CC(C)C)C(=O)N[C@@H](CCC(=O)O)C(=O)N[C@H]1CCC(=O)NCCCC[C@@H](C(=O)N[C@@H](CCCNC(=N)N)C(=O)N[C@@H](CC(C)C)C(=O)N[C@H](C(=O)N[C@@H](CCC(=O)O)C(N)=O)[C@@H](C)O)NC(=O)[C@H](CCCNC(=N)N)NC(=O)[C@H](CC(C)C)NC(=O)[C@H](CCC(=O)O)NC1=O [SD15194] (Ac-SRLEEELRKRLTE-NH2; lactam 5-9)", "Kd, nM": 0.0376}
{"compound": "CC(=O)N1CCC[C@H]1C(=O)N[C@@H](CO)C(=O)N[C@@H](CCCNC(=N)N)C(=O)N[C@@H](CC(C)C)C(=O)N[C@H]1CCC(=O)NCCCC[C@@H](C(=O)N[C@@H](CCCNC(=N)N)C(=O)N[C@@H](CCCNC(=N)N)C(=O)N[C@@H](CC(C)C)C(=O)N[C@H](C(=O)N[C@@H](CCC(=O)O)C(N)=O)[C@@H](C)O)NC(=O)[C@H](CC(C)C)NC(=O)[C@H](CCC(=O)O)NC(=O)[C@H](CCC(=O)O)NC1=O [SD15806] (Ac-PSRLEEELKRRLTE-NH2; lactam 5-9)", "Kd, nM": 1.43}

Respectfully, I request Kd for each entry included below.
1. CC(=O)N[C@@H](CO)C(=O)N[C@@H](CCCNC(=N)N)C(=O)N[C@@H](CC(C)C)C(=O)N[C@@H](CCC(=O)O)C(=O)N[C@H]1CCC(=O)NCCCC[C@@H](C(=O)N[C@@H](CCCNC(=N)N)C(=O)N[C@@H](CCCNC(=N)N)C(=O)N[C@@H](CC(C)C)C(=O)N[C@H](C(=O)N[C@@H](CCC(=O)O)C(N)=O)[C@@H](C)O)NC(=O)[C@H](CC(C)C)NC(=O)[C@H](CCC(=O)O)NC1=O [SD15192] (Ac-SRLEEELKRRLTE-NH2; lactam 5-8)
2. CC(=O)N[C@@H](CO)C(=O)N[C@@H](CCCNC(=N)N)C(=O)N[C@@H](CC(C)C)C(=O)N[C@@H](CCC(=O)O)C(=O)N[C@H]1CC(=O)NCCCC[C@@H](C(=O)N[C@@H](CCCNC(=N)N)C(=O)N[C@@H](CC(C)C)C(=O)N[C@H](C(=O)N[C@@H](CCC(=O)O)C(N)=O)[C@@H](C)O)NC(=O)[C@H](CCCNC(=N)N)NC(=O)[C@H](CC(C)C)NC(=O)[C@H](CCC(=O)O)NC1=O [SD15196] (Ac-SRLEDELRKRLTE-NH2; lactam 5-9)

Response:
0.0551
0.436
